# TESTED SYSTEM: Recombinant human NK3 (hNK3) receptor (Homo sapiens, UniProt P29371)
# Construct: expressed in transfected cells
# Sequence (P29371 1-465): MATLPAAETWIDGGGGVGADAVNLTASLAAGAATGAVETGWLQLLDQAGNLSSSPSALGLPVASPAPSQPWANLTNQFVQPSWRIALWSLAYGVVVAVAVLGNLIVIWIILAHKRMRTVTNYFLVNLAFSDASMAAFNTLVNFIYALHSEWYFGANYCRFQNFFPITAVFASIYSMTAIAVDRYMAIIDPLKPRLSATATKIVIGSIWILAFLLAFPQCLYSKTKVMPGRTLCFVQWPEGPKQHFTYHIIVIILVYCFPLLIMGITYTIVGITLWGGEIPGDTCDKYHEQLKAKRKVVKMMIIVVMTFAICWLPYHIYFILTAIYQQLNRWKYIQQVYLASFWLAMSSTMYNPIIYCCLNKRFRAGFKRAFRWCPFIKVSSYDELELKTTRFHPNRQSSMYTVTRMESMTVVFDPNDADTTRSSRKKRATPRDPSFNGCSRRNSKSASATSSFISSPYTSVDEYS
# PROTOCOL SUMMARY: NK3 receptor binding, [3H]SR142801 displacement, membrane preparations
# EXPERIMENTAL SETUP: second value of the cell pKi NK1/NK3; hNK3 receptor, [3H]SR142801
READOUT: log10 of Ki (log10 of the value in nM)
Form field - Quantity: Ki; Unit: nM; Scale: log10

structure_string=Cc1ccccc1-c1cc(NC[C@H](C)O)ncc1N(C)C(=O)C(C)(C)c1cc(C(F)(F)F)cc(C(F)(F)F)c1 readout="log10 of Ki" endpoint_result=1.00

Recorded log10 of Ki (molecule COc1cc(Cl)cc(C(C)(C)C(=O)N(C)c2cnc(N3CCC[C@H]3CO)cc2-c2ccc(F)cc2C)c1 ): 0.55

What the record says about CC(=O)N[C@@H]1CCN(c2cc(-c3ccc(F)cc3C)c(N(C)C(=O)C(C)(C)c3cc(C(F)(F)F)cc(C(F)(F)F)c3)cn2)C1 : log10 of Ki is 1.30

Cc1cc(F)ccc1-c1cc(N2CCC(=O)C2)ncc1N(C)C(=O)C(C)(C)c1cc(C(F)(F)F)cc(C(F)(F)F)c1 has a reported log10 of Ki of 0.61

# log10 of Ki of Cc1cc(F)ccc1-c1cc(N2C[C@H](O)C[C@H]2CO)ncc1N(C)C(=O)C(C)(C)c1cc(C(F)(F)F)cc(C(F)(F)F)c1 = -0.02

For record Cc1ccccc1-c1cc(N2C[C@H](O)[C@@H](O)C2)ncc1N(C)C(=O)C(C)(C)c1cc(C(F)(F)F)cc(C(F)(F)F)c1 the listed log10 of Ki is 1.43

----------
# TESTED SYSTEM: human NK1 receptor (Homo sapiens)
# Sequence (P25103 whole entry): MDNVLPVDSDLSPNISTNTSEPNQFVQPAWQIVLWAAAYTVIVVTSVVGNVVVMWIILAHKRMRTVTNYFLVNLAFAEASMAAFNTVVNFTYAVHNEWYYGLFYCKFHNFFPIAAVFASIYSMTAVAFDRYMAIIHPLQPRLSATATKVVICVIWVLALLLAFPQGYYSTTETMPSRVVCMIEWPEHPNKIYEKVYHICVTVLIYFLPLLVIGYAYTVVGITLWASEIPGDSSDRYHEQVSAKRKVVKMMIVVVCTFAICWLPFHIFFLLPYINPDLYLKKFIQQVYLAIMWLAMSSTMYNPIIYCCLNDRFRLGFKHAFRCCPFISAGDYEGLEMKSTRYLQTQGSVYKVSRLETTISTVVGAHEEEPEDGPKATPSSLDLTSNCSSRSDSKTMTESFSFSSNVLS
# PROTOCOL SUMMARY: NK1 receptor binding, [3H]substance P displacement, CHO cell membranes
# EXPERIMENTAL SETUP: first value of the cell NK1/NK3; read-out: pKi NK1 (converted)
READOUT: Ki (nM)
Numbers only here, please. The scale is nM.

structure_string=CSc1ccccc1-c1cc(N2C[C@H](O)C[C@H]2CO)ncc1N(C)C(=O)C(C)(C)c1cc(C(F)(F)F)cc(C(F)(F)F)c1 tested_system="human NK1 receptor (Homo sapiens)" endpoint_result=1.05
structure_string=CN(C(=O)C(C)(C)c1cc(C(F)(F)F)cc(C(F)(F)F)c1)c1cnc(N2C[C@H](O)C[C@H]2CO)cc1-c1ccccc1C=O tested_system="human NK1 receptor (Homo sapiens)" endpoint_result=1.12
structure_string=CN(C(=O)C(C)(C)c1cc(C(F)(F)F)cc(C(F)(F)F)c1)c1cnc(N2C[C@@H](O)C[C@H]2CO)cc1-c1cccnc1Cl tested_system="human NK1 receptor (Homo sapiens)" endpoint_result=0.977
structure_string=CN(C(=O)C(C)(C)c1cc(C(F)(F)F)cc(C(F)(F)F)c1)c1cnc(N2CC[C@H](O)[C@H]2CO)cc1-c1cc(Cl)ccc1Cl tested_system="human NK1 receptor (Homo sapiens)" endpoint_result=2.63
structure_string=CN(C(=O)C(C)(C)c1cc(C(F)(F)F)cc(C(F)(F)F)c1)c1cnc(N2C[C@@H](O)C[C@H]2CO)cc1-c1ncccc1Cl tested_system="human NK1 receptor (Homo sapiens)" endpoint_result=2.4

Turning now to a further molecule:
The recorded Ki for CN(C(=O)C(C)(C)c1cc(C(F)(F)F)cc(C(F)(F)F)c1)c1cnc(N2CCC[C@H]2CO)cc1-c1ccccc1Br is 3.47
